# assay-remarks: Half-life determination in human plasma (LC-MS)
# Assay type: in vitro ADME
# measurement-setup: 37° C.
outcome-measure: half-life (h)
Record the value in h, omitting the unit from your answer.

Observe how each entry below is paired with its result.
CC[C@@H]1NC(=O)[C@H](CCCCN)NC(=O)[C@@H](Cc2c[nH]c3ccccc23)NC(=O)[C@H](Cc2ccc(O)cc2)NC(=O)[C@@H](NC(=O)[C@@H](Cc2ccccc2)NC(=O)CN2CCN(CCNC(=O)COCCOCCNC(=O)COCCOCCNC(=O)COCCOCCNC(=O)COCCOCCNC(=O)CCCC(=O)O[C@]3(CC)C(=O)OCc4c3cc3n(c4=O)Cc4cc5ccccc5nc4-3)CC2)CSSC[C@@H](C(=O)N[C@H](C(N)=O)[C@@H](C)O)NC1=O [Example 16]    3.6
CC[C@@H]1NC(=O)[C@H](CCCCN)NC(=O)[C@@H](Cc2c[nH]c3ccccc23)NC(=O)[C@H](Cc2ccc(O)cc2)NC(=O)[C@@H](NC(=O)[C@@H](Cc2ccccc2)NC(=O)CN2CCN(CCNC(=O)COCCOCCNC(=O)COCCOCCNC(=O)COCCOCCNC(=O)COCCOCCNC(=O)CCC(=O)N[C@@H](CCCNC(=N)N)C(=O)O[C@]3(CC)C(=O)OCc4c3cc3n(c4=O)Cc4cc5ccccc5nc4-3)CC2)CSSC[C@@H](C(=O)N[C@H](C(N)=O)[C@@H](C)O)NC1=O [Example 7]    1.5

Prompt: Consider the compound CC[C@@H]1NC(=O)[C@H](CCCCN)NC(=O)[C@@H](Cc2c[nH]c3ccccc23)NC(=O)[C@H](Cc2ccc(O)cc2)NC(=O)[C@@H](NC(=O)[C@@H](Cc2ccccc2)NC(=O)CN2CCN(CCNC(=O)COCCOCCNC(=O)COCCOCCNC(=O)COCCOCCNC(=O)COCCOCCNC(=O)CCC(=O)N[C@@H](Cc3ccccc3)C(=O)O[C@]3(CC)C(=O)OCc4c3cc3n(c4=O)Cc4cc5ccccc5nc4-3)CC2)CSSC[C@@H](C(=O)N[C@H](C(N)=O)[C@@H](C)O)NC1=O [Example 10] and give its measured half-life.
Response: 0.3
